System: Trypanosoma brucei rhodesiense (Tbr) STIB900 strain
PROTOCOL NOTES: in vitro antitrypanosomal assay, bloodstream forms, resazurin
Assay type: cell-based
TEST CONDITIONS: Trypanosoma brucei, values in brackets, calculated with the molecular masses of the corresponding salts; read-out: IC50 Tbr (converted)
# maps each entry to its IC50

{"columns": ["COMPOUND", "IC50, µM"],
 "data": [
  ["CN[C@@H](C)[C@H]1CC[C@H]2[C@@H]3CC[C@H]4C[C@@H](N(C)C)CC[C@]4(C)[C@H]3CC[C@]12C [Compound 3, Desacyl-epipachysamine A]", 3.5],
  ["C[C@@H]([C@H]1CC[C@H]2[C@@H]3CC[C@H]4C[C@]5(CC[C@]4(C)[C@H]3CC[C@]12C)c1ccccc1C(=O)N5C)N(C)C [Compound 15, Spiropachysine]", 3.83],
  ["C[C@@H]([C@H]1CC[C@H]2[C@@H]3CC[C@H]4C[C@@H](N(C)C)CC[C@]4(C)[C@H]3CC[C@]12C)N(C)C [Compound 12, N-methyl-desacyl-epipachysamine A]", 3.9],
  ["CNC1CCC2(C)C3CCC4(C)C(CCC4C(C)N(C)C)C3CCC2C1OC(=O)c1ccccc1 (centres unmarked) [Compound 7]", 0.11],
  ["CC(=O)[C@H]1CC[C@H]2[C@@H]3CCC4C[C@@H](N(C)C)CC[C@]4(C)[C@H]3CC[C@]12C (stereo partly drawn) [Compound 9, 3β-Dimethylamino-pregnane-20-one]", 4.8]
]}

* * *

# maps each entry to its log10 IC50
Tested on: Plasmodium falciparum (Pf) NF54 strain
PROTOCOL NOTES: in vitro antiplasmodial assay, 3H-hypoxanthine incorporation, erythrocytic stages
Type: cell-based
TEST CONDITIONS: Plasmodium falciparum, NF54, pure compounds, tested as mono- or bis-trifluoroacetates where marked; read-out: IC50 Pf (converted)
QUANTITY NAME: log10 IC50 (log10 of the value in µg/mL)

{"columns": ["COMPOUND", "log10 IC50"],
 "data": [
  ["C[C@@H]([C@H]1CC[C@H]2[C@@H]3CC[C@H]4C[C@@H](N(C)C)CC[C@]4(C)[C@H]3CC[C@]12C)N(C)C [Compound 12, N-methyl-desacyl-epipachysamine A]", 0.40],
  ["CN[C@@H]1CC[C@@]2(C)[C@@H](CC[C@@H]3[C@@H]2CC[C@]2(C)[C@@H]([C@H](C)N(C)C)CC[C@@H]32)C1", 0.26],
  ["C[C@@H]([C@H]1CC[C@H]2[C@@H]3CC[C@H]4C[C@]5(CC[C@]4(C)[C@H]3CC[C@]12C)c1ccccc1C(=O)N5C)N(C)C", 0.48],
  ["CC(C)=CC(=O)N[C@@H]1[C@H](O)[C@@H]2CC[C@@H]3[C@H](CC[C@]4(C)[C@@H]([C@H](C)N(C)C)CC[C@@H]34)[C@@]2(C)C[C@@H]1O [Compound 16, 4β-Hydroxy-hookerianamide N]", 0.79],
  ["C[C@@H]([C@H]1CC[C@H]2[C@@H]3CC[C@H]4[C@@H](O)[C@@H](NC(=O)c5ccccc5)[C@@H](O)C[C@]4(C)[C@H]3CC[C@]12C)N(C)C", 1.67],
  ["C[C@@H]([C@H]1CC[C@H]2[C@@H]3CC[C@H]4C[C@@H](NC(=O)c5cccnc5)CC[C@]4(C)[C@H]3CC[C@]12C)N(C)C [Compound 4, Epipachysamine B]", 0.36],
  ["C[C@@H]([C@H]1CC[C@H]2[C@@H]3CC=C4C[C@@H](N(C)C)CC[C@]4(C)[C@H]3CC[C@]12C)N(C)C", 0.66],
  ["C[C@@H]([C@H]1CC[C@H]2[C@@H]3CC[C@H]4[C@H](O)[C@@H](O)CC[C@]4(C)[C@H]3CC[C@]12C)N(C)C", 0.48],
  ["CN[C@@H](C)[C@H]1CC[C@H]2[C@@H]3CC[C@H]4C[C@@H](N(C)C)CC[C@]4(C)[C@H]3CC[C@]12C [Compound 3, Desacyl-epipachysamine A]", -0.07],
  ["CN[C@@H]1CC[C@]2(C)[C@H]3CC[C@]4(C)[C@@H]([C@H](C)N(C)C)CC[C@H]4[C@@H]3CC[C@H]2[C@@H]1OC(=O)C=C(C)C", -0.18],
  ["CC1=CC(=O)CC(C)(C)C1CCC(C)N(C)C (centres unmarked)", -0.03]
]}

* * *

PROTOCOL NOTES: cytotoxicity against L-6 rat skeletal myoblasts, resazurin
Assay type: cell-based
TEST CONDITIONS: pure compounds, L6 cells, tested as mono- or bis-trifluoroacetates where marked, read-out: IC50 Cytotox (converted)

{"columns": ["COMPOUND", "IC50 at 70 h"],
 "data": [
  ["CC(=O)[C@H]1CC[C@H]2[C@@H]3CCC4C[C@@H](N(C)C)CC[C@]4(C)[C@H]3CC[C@]12C (stereo partly drawn) [Compound 9, 3β-Dimethylamino-pregnane-20-one]", "6 µg/mL"]
]}

* * *

System: Plasmodium falciparum (Pf) NF54 strain
PROTOCOL NOTES: in vitro antiplasmodial assay, 3H-hypoxanthine incorporation, erythrocytic stages
Assay type: cell-based
TEST CONDITIONS: Plasmodium falciparum, NF54, pure compounds, tested as mono- or bis-trifluoroacetates where marked; read-out: IC50 Pf (converted)
# maps each entry to its IC50

{"columns": ["COMPOUND", "ENDPOINT UNIT", "IC50"],
 "data": [
  ["CN[C@@H]1CC[C@]2(C)[C@H]3CC[C@]4(C)[C@@H]([C@H](C)N(C)C)CC[C@H]4[C@@H]3CC[C@@]2(O)[C@@H]1OC(=O)c1ccccc1 [Compound 17, 5α-Hydroxy-3α,4α-diapachysanaximine A]", "µg/mL", 1.6],
  ["CC(=O)N(C)[C@@H](C)[C@H]1CC[C@H]2[C@@H]3CC[C@H]4C[C@@H](N(C)C)CC[C@]4(C)[C@H]3CC[C@]12C [Compound 14, Epipachysamine A]", "µg/mL", 18],
  ["CNC1CCC2(C)C3CCC4(C)C(CCC4C(C)N(C)C)C3CCC2C1OC(=O)c1ccccc1 (stereo not drawn)", "µg/mL", 0.45],
  ["CN[C@@H](C)[C@H]1CC[C@H]2[C@@H]3CC=C4C[C@@H](N(C)C)CC[C@]4(C)[C@H]3CC[C@]12C [Compound 2, 5,6-Dehydro-desacyl-epipachysamine A]", "µg/mL", 0.898],
  ["C[C@@H]([C@H]1CC[C@H]2[C@@H]3CC=C4C[C@@H](NC(=O)c5cccnc5)CC[C@]4(C)[C@H]3CC[C@]12C)N(C)C", "µg/mL", 0.91],
  ["CN[C@@H](C)[C@H]1CC[C@H]2[C@@H]3CC[C@H]4C[C@@H]([N+](C)(C)CCl)CC[C@]4(C)[C@H]3CC[C@]12C [Compound 6, N3-chloromethyl-desacyl-epipachysamine A]", "µg/mL", 0.25]
]}

* * *

# maps each entry to its IC50
System: Trypanosoma brucei rhodesiense (Tbr) STIB900 strain
PROTOCOL NOTES: in vitro antitrypanosomal assay, bloodstream forms, resazurin
Type: cell-based
TEST CONDITIONS: Trypanosoma brucei, values in brackets, calculated with the molecular masses of the corresponding salts; read-out: IC50 Tbr (converted)

{"columns": ["MOLECULE", "IC50 [µM]"],
 "data": [
  ["CN[C@@H](C)[C@H]1CC[C@H]2[C@@H]3CC=C4C[C@@H](N(C)C)CC[C@]4(C)[C@H]3CC[C@]12C [Compound 2, 5,6-Dehydro-desacyl-epipachysamine A]", 3.2],
  ["CN[C@@H](C)[C@H]1CC[C@H]2[C@@H]3CC[C@H]4C[C@@H]([N+](C)(C)CCl)CC[C@]4(C)[C@H]3CC[C@]12C [Compound 6, N3-chloromethyl-desacyl-epipachysamine A]", 1.9],
  ["C[C@@H]([C@H]1CC[C@H]2[C@@H]3CC=C4C[C@@H](N(C)C)CC[C@]4(C)[C@H]3CC[C@]12C)N(C)C", 4.3],
  ["CN[C@@H]1CC[C@]2(C)[C@H]3CC[C@]4(C)[C@@H]([C@H](C)N(C)C)CC[C@H]4[C@@H]3CC[C@H]2[C@@H]1OC(=O)C=C(C)C", 0.95],
  ["C[C@@H]([C@H]1CC[C@H]2[C@@H]3CC[C@H]4[C@H](O)[C@@H](O)CC[C@]4(C)[C@H]3CC[C@]12C)N(C)C", 12.4],
  ["CC(=O)N(C)[C@@H](C)[C@H]1CC[C@H]2[C@@H]3CC[C@H]4C[C@@H](N(C)C)CC[C@]4(C)[C@H]3CC[C@]12C [Compound 14, Epipachysamine A]", 4.14],
  ["C[C@@H]([C@H]1CC[C@H]2[C@@H]3CC[C@H]4[C@@H](O)[C@@H](NC(=O)c5ccccc5)[C@@H](O)C[C@]4(C)[C@H]3CC[C@]12C)N(C)C", 9.9],
  ["CC1=CC(=O)CC(C)(C)C1CCC(C)N(C)C (centres unmarked)", 26.2]
]}
